# MEASURED_TARGET: CDK6/cyclinD3 (Homo sapiens)
# ASSAY_EXPLANATION: CDKi biochemical assay (TR-FRET, phosphorylation of S780 on RB1 peptide)
# PROTOCOL_CONDITIONS: CDK6/cyclinD3 10 pM, 1 mM ATP, 60 min at 25° C.
Reported pIC50 values for the following compounds.
Recall that pIC50 is obtained by taking minus log10 of the concentration measured in molar.

# INPUT_SMILES, pIC50
rows = [
    ("O=C1N([C@@H]2CCC[C@@H](O)C2)c2nc(Nc3c[nH]nc3-c3cnn(C(F)F)c3)ncc2C12CC2", 5.48),
    ("O=C1N([C@@H]2CCCC[C@@H](O)C2)c2nc(Nc3c[nH]nc3Cl)ncc2C12CC2", 5.04),
    ("O=C1N([C@@H]2CCC[C@@H](O)C2)c2nc(Nc3c[nH]nc3OCC(F)F)ncc2C12CC2", 5.29),
    ("O=C1N([C@@H]2CCC[C@@H](O)C2)c2nc(Nc3c[nH]nc3OCC3CC3)ncc2C12CC2", 5.04),
    ("Cc1n[nH]cc1Nc1ncc2c(n1)N([C@@H]1CCC[C@@H](O)C1)C(=O)C21CC1", 5.18),
]

Here is another compound to look at.
Q. Which pIC50 reading was recorded for the compound `O=C1N([C@@H]2CCC[C@@H](O)C2)c2nc(Nc3c[nH]nc3-c3cnn4c3CCC4)ncc2C12CC2` ?
A. 5.12

###

# MEASURED_TARGET: CDK1/CyclinB1 (Homo sapiens, UniProt P06493)
# ASSAY_EXPLANATION: CDKi biochemical assay (TR-FRET, phosphorylation of S780 on RB1 peptide)
# PROTOCOL_CONDITIONS: CDK1/CyclinB1 10 pM, 1 mM ATP, 60 min at 25° C.
Reported IC50 values for the following compounds.
Numeric only. Scale: µM

# COMPOUND, IC50 [µM]
data = [
    ("O=C1N([C@@H]2CCC[C@@H](O)C2)c2nc(Nc3c[nH]nc3OC3(CF)CC3)ncc2C12CC2 [Example 85]", 1.71),
]

Q. Can you look up IC50 on CDK1/CyclinB1 (Homo sapiens, UniProt P06493) for Cc1c(-c2n[nH]cc2Nc2ncc3c(n2)N([C@@H]2CCC[C@@H](O)C2)C(=O)C32CC2)cnn1C(F)F [Example 62] ?
A. 4.23

Q. And O=C1N([C@@H]2CCC[C@@H](O)C2)c2nc(Nc3c[nH]nc3OC3CC3)ncc2C12CC2 [Example 55] ?
A. 1.43

Q. And O=C1N([C@@H]2CCC[C@@H](O)C2)c2nc(Nc3c[nH]nc3O)ncc2C12CC2 [Example 77] ?
A. 5.82

Q. And O=C1N([C@@H]2CCC[C@@H](O)C2)c2nc(Nc3c[nH]nc3-c3nnco3)ncc2C12CC2 [Example 83] ?
A. 8.62

###

# MEASURED_TARGET: CDK2/CyclinE1 (Homo sapiens)
# ASSAY_EXPLANATION: CDKi biochemical assay (TR-FRET, phosphorylation of S780 on RB1 peptide)
# PROTOCOL_CONDITIONS: CDK2/CyclinE1 100 pM, 1 mM ATP, 60 min at 25° C.
PROPERTY_MEASURED: pIC50
Recall that pIC50 is obtained by taking minus log10 of the concentration measured in molar.

# COMPOUND, pIC50
records = [
    ("O=C1N([C@@H]2CCC[C@@H](O)C2)c2nc(Nc3c[nH]nc3OC[C@H]3CCOC3)ncc2C12CC2 [Example 72]", 7.21),
    ("CN1C[C@H](Oc2n[nH]cc2Nc2ncc3c(n2)N([C@@H]2CCC[C@@H](O)C2)C(=O)C32CC2)[C@@H](F)C1 [Example 51]", 6.92),
    ("O=C1N([C@@H]2CCC[C@@H](O)C2)c2nc(Nc3c[nH]nc3OC[C@@H]3CCOC3)ncc2C12CC2 [Example 71]", 7.36),
    ("O=C1N([C@@H]2CCC[C@@H](O)C2)c2nc(Nc3c[nH]nc3O[C@H]3CCOC3)ncc2C12CC2 [Example 78]", 7.77),
    ("O=C1N([C@@H]2CCC[C@@H](O)C2)c2nc(Nc3c[nH]nc3-c3nnco3)ncc2C12CC2 [Example 83]", 7.51),
]

Q. Which pIC50 reading was recorded for the compound COc1n[nH]cc1Nc1ncc2c(n1)N([C@@H]1CCCC[C@@H](O)C1)C(=O)C21CC1 [Example 18] ?
A. 6.94

Q. And O=C1N([C@@H]2CCC[C@@H](O)C2)c2nc(Nc3c[nH]nc3[C@@H]3CC3(F)F)ncc2C12CC2 [Example 33] ?
A. 7.31

###

# MEASURED_TARGET: CDK4/cyclinD1 (Homo sapiens)
# ASSAY_EXPLANATION: CDKi biochemical assay (TR-FRET, phosphorylation of S780 on RB1 peptide)
# PROTOCOL_CONDITIONS: CDK4/cyclinD1 20 pM, 1 mM ATP, 60 min at 25° C.
Reported IC50 values for the following compounds.
Numeric only. Scale: µM

Examples from the recorded data:
# INPUT_SMILES, IC50, µM
rows = [
    ("O=C1N([C@@H]2CCC[C@@H](O)C2)c2nc(Nc3c[nH]nc3CO)ncc2C12CC2", 0.84),
    ("Cn1ccc(COc2n[nH]cc2Nc2ncc3c(n2)N([C@@H]2CCC[C@@H](O)C2)C(=O)C32CC2)n1", 3.09),
]

Q. Which IC50 reading was recorded for the compound `Cn1cc(-c2n[nH]cc2Nc2ncc3c(n2)N([C@@H]2CCC[C@@H](O)C2)C(=O)C32CC2)cn1` ?
A. 9.3

###

# MEASURED_TARGET: CDK2/CyclinE1 (Homo sapiens, UniProt P24941)
# ASSAY_EXPLANATION: CDKi biochemical assay (TR-FRET, phosphorylation of S780 on RB1 peptide)
# PROTOCOL_CONDITIONS: CDK2/CyclinE1 100 pM, 1 mM ATP, 60 min at 25° C.
PROPERTY_MEASURED: pIC50
Recall that pIC50 is obtained by taking minus log10 of the concentration measured in molar.

Examples from the recorded data:
# MOLECULE, MEASURED_TARGET, pIC50
records = [
    ("COCCOc1n[nH]cc1Nc1ncc2c(n1)N([C@@H]1CCC[C@@H](O)C1)C(=O)C21CC1", "CDK2/CyclinE1 (Homo sapiens, UniProt P24941)", 7.47),
    ("O=C1N([C@@H]2CCC[C@@H](O)C2)c2nc(Nc3c[nH]nc3O[C@@H]3CC3(F)F)ncc2C12CC2", "CDK2/CyclinE1 (Homo sapiens, UniProt P24941)", 8.22),
    ("O=C1N([C@@H]2CCC[C@@H](O)C2)c2nc(Nc3c[nH]nc3OCCO)ncc2C12CC2", "CDK2/CyclinE1 (Homo sapiens, UniProt P24941)", 7.62),
    ("O=C1N([C@@H]2CCC[C@@H](O)C2)c2nc(Nc3c[nH]nc3C3CCCCO3)ncc2C12CC2 (stereo partly shown)", "CDK2/CyclinE1 (Homo sapiens, UniProt P24941)", 5.91),
    ("Cc1n[nH]cc1Nc1ncc2c(n1)N([C@H]1C[C@H](O)CC(C)(C)C1)C(=O)C21CC1", "CDK2/CyclinE1 (Homo sapiens, UniProt P24941)", 6.87),
    ("O=C1N([C@@H]2CCC[C@@H](O)C2)c2nc(Nc3cnn4c3CNCC4)ncc2C12CC2", "CDK2/CyclinE1 (Homo sapiens, UniProt P24941)", 6.57),
]

Q. Which pIC50 reading was recorded for the molecule `N#CC1(COc2n[nH]cc2Nc2ncc3c(n2)N([C@@H]2CCC[C@@H](O)C2)C(=O)C32CC2)CC1` ?
A. 7.64

###

Reported IC50 values for the following compounds.
# MEASURED_TARGET: CDK6/cyclinD3 (Homo sapiens)
# ASSAY_EXPLANATION: CDKi biochemical assay (TR-FRET, phosphorylation of S780 on RB1 peptide)
# PROTOCOL_CONDITIONS: CDK6/cyclinD3 10 pM, 1 mM ATP, 60 min at 25° C.

Examples from the recorded data:
# COMPOUND, IC50
data = [
    ("Cc1c(-c2n[nH]cc2Nc2ncc3c(n2)N([C@@H]2CCC[C@@H](O)C2)C(=O)C32CC2)cnn1C(F)F", "1.83 µM"),
    ("[2H]C([2H])([2H])Oc1n[nH]cc1Nc1ncc2c(n1)N([C@@H]1CCC[C@@H](O)C1)C(=O)C21CC1", "≥ 10 µM"),
    ("Cn1ncc(-c2n[nH]cc2Nc2ncc3c(n2)N([C@@H]2CCC[C@@H](O)C2)C(=O)C32CC2)c1Cl", "≥ 10 µM"),
]

Here is another compound to look at.
Q. Which IC50 reading was recorded for the compound `O=C1N([C@@H]2CCC[C@@H](O)C2)c2nc(Nc3c[nH]nc3O[C@@H]3CC3(F)F)ncc2C12CC2` ?
A. ≥ 10 µM
